The reported numbers originate from BindingDB's records for doi:10.1021/bi020016x.

- Tested system: Acetylcholinesterase (Homo sapiens)
- Sequence (P22303 whole entry): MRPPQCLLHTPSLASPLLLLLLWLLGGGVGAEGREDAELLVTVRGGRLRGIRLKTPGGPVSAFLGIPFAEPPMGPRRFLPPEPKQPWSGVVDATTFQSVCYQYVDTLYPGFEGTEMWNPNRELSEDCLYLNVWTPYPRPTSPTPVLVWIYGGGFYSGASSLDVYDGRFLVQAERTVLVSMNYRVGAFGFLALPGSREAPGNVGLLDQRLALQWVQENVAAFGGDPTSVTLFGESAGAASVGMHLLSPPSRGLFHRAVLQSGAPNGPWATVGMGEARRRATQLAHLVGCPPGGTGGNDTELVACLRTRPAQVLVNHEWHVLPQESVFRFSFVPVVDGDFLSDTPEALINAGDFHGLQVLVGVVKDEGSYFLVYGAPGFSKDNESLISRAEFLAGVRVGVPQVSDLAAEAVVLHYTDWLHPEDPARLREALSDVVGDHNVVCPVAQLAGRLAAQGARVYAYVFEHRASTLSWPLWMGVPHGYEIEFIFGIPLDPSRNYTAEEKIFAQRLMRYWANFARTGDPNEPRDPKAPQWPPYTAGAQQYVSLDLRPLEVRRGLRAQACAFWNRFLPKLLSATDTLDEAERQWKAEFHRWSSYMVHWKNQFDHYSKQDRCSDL
Parameter measured: pKi
Field pKi (float): negative decimal logarithm of the concentration in molar.

Exercise: pKi for C[C@@H](c1cccc(O)c1)N(C)C [3-[1-(dimethylamino)ethyl]phenol] ?
Solution: 4.48
